# EXPERIMENTAL_TARGET: Lethal factor (Bacillus anthracis)
# ASSAY_OVERVIEW: anthrax lethal factor cleavage blockers – biochemical, multiplex microsphere, confirmation (AID 602327)
# CONDITION: multiplex microsphere protease cleavage assay; at 10 µM; active compounds read high
This is one part of the list.
Could you please report measured inhibition for the items listed next?
Field: numeric (%). Do not append units.

Just so you know, measured inhibition for `Cc1cc2cc(CNC(=O)c3ccc(S(=O)(=O)N4CCOCC4)cc3)ccc2[nH]1` came out at -0.8

Just so you know, measured inhibition for `CCOc1ncccc1C(=O)OCC(=O)c1c[nH]c2ccccc12` came out at 10.4

Just so you know, measured inhibition for `Cc1cc2ccccc2n1CCNC(=O)COc1ccc2ccccc2c1` came out at 0.2

Just so you know, measured inhibition for `CC(=O)OCCN(CCCn1c(-c2ccncc2)nc2ccccc21)c1nc(-c2ccc(C)cc2)cs1` came out at 0.3

Where do the numbers come from? From PubChem BioAssay AID602327.
